Cited source for all entries: the supplement of paper PMC10567573

B1: FAM189A2 (parent)
chain: CALNALTTTVCLVAAALRYLQIFA

# Variants of: B1
# procedure.details: protein stability index of a GFP-peptide fusion (GPS, HEK-293T) (PSI 1-6); higher = more stable;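 also: lentivirally expressed fusions sorted by FACS into six bins by GFP to DsRed ratio, PSI derived from sequencing read proportions per bin multiplied by bin number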
# experimental.conditions: c terminus: a fixed tail appended
Class yes (1): protein stability index at least 3. Class no (0): protein stability index below 3.

Challenge: Is reported protein stability index greater than or equal to 3 here: T8N
Response given: yes (1)

Challenge: Is reported protein stability index greater than or equal to 3 here: V10G
Response given: yes (1)

Challenge: Is reported protein stability index greater than or equal to 3 here: V10P
Response given: no (0)

Challenge: Is reported protein stability index greater than or equal to 3 here: T7F
Response given: no (0)

Challenge: Is reported protein stability index greater than or equal to 3 here: N4S
Response given: yes (1)

Challenge: Is reported protein stability index greater than or equal to 3 here: C1I
Response given: no (0)

Challenge: Is reported protein stability index greater than or equal to 3 here: T9H
Response given: no (0)

Challenge: Is reported protein stability index greater than or equal to 3 here: T8G
Response given: no (0)

Challenge: Is reported protein stability index greater than or equal to 3 here: A14P
Response given: yes (1)

Challenge: Is reported protein stability index greater than or equal to 3 here: C11D
Response given: no (0)

Challenge: Is reported protein stability index greater than or equal to 3 here: C11S
Response given: no (0)

Challenge: Is reported protein stability index greater than or equal to 3 here: I22M
Response given: yes (1)

Challenge: Is reported protein stability index greater than or equal to 3 here: A24I
Response given: no (0)

Challenge: Is reported protein stability index greater than or equal to 3 here: N4F
Response given: no (0)

Challenge: Is reported protein stability index greater than or equal to 3 here: T7R
Response given: no (0)

Challenge: Is reported protein stability index greater than or equal to 3 here: A2W
Response given: no (0)

Challenge: Is reported protein stability index greater than or equal to 3 here: Y19L
Response given: yes (1)

Challenge: Is reported protein stability index greater than or equal to 3 here: Y19A
Response given: yes (1)

Challenge: Is reported protein stability index greater than or equal to 3 here: A15W
Response given: no (0)

Challenge: Is reported protein stability index greater than or equal to 3 here: A14Q
Response given: no (0)

Challenge: Is reported protein stability index greater than or equal to 3 here: L12R
Response given: no (0)

Challenge: Is reported protein stability index greater than or equal to 3 here: T9I
Response given: no (0)

Challenge: Is reported protein stability index greater than or equal to 3 here: A2K
Response given: yes (1)

Challenge: Is reported protein stability index greater than or equal to 3 here: L3F
Response given: yes (1)

Challenge: Is reported protein stability index greater than or equal to 3 here: A14L
Response given: yes (1)

Challenge: Is reported protein stability index greater than or equal to 3 here: L6G
Response given: yes (1)

Challenge: Is reported protein stability index greater than or equal to 3 here: V13L
Response given: no (0)

Challenge: Is reported protein stability index greater than or equal to 3 here: C11I
Response given: yes (1)

Challenge: Is reported protein stability index greater than or equal to 3 here: A24G
Response given: yes (1)

Challenge: Is reported protein stability index greater than or equal to 3 here: L3P
Response given: yes (1)

Challenge: Is reported protein stability index greater than or equal to 3 here: F23V
Response given: yes (1)

Challenge: Is reported protein stability index greater than or equal to 3 here: N4C
Response given: no (0)

Challenge: Is reported protein stability index greater than or equal to 3 here: A15N
Response given: yes (1)

Challenge: Is reported protein stability index greater than or equal to 3 here: L3H
Response given: no (0)

Challenge: Is reported protein stability index greater than or equal to 3 here: V13Q
Response given: no (0)

Challenge: Is reported protein stability index greater than or equal to 3 here: V13Y
Response given: no (0)

Challenge: Is reported protein stability index greater than or equal to 3 here: L20G
Response given: no (0)

Challenge: Is reported protein stability index greater than or equal to 3 here: A14N
Response given: yes (1)

Challenge: Is reported protein stability index greater than or equal to 3 here: F23Q
Response given: yes (1)

Challenge: Is reported protein stability index greater than or equal to 3 here: F23E
Response given: yes (1)

Challenge: Is reported protein stability index greater than or equal to 3 here: A2P
Response given: yes (1)

Challenge: Is reported protein stability index greater than or equal to 3 here: R18T
Response given: no (0)

Challenge: Is reported protein stability index greater than or equal to 3 here: A5F
Response given: no (0)

Challenge: Is reported protein stability index greater than or equal to 3 here: Q21I
Response given: no (0)

Challenge: Is reported protein stability index greater than or equal to 3 here: C1S
Response given: yes (1)

Challenge: Is reported protein stability index greater than or equal to 3 here: A14W
Response given: no (0)

Challenge: Is reported protein stability index greater than or equal to 3 here: L20V
Response given: no (0)

Challenge: Is reported protein stability index greater than or equal to 3 here: N4T
Response given: no (0)

Challenge: Is reported protein stability index greater than or equal to 3 here: F23N
Response given: yes (1)

Challenge: Is reported protein stability index greater than or equal to 3 here: I22P
Response given: yes (1)

Challenge: Is reported protein stability index greater than or equal to 3 here: L3S
Response given: no (0)

Challenge: Is reported protein stability index greater than or equal to 3 here: C11F
Response given: yes (1)

Challenge: Is reported protein stability index greater than or equal to 3 here: L12P
Response given: yes (1)

Challenge: Is reported protein stability index greater than or equal to 3 here: A15G
Response given: no (0)

Challenge: Is reported protein stability index greater than or equal to 3 here: L6W
Response given: yes (1)

Challenge: Is reported protein stability index greater than or equal to 3 here: R18M
Response given: no (0)

Challenge: Is reported protein stability index greater than or equal to 3 here: T8R
Response given: no (0)

Challenge: Is reported protein stability index greater than or equal to 3 here: T7Y
Response given: yes (1)

Challenge: Is reported protein stability index greater than or equal to 3 here: T9A
Response given: yes (1)

Challenge: Is reported protein stability index greater than or equal to 3 here: L12C
Response given: no (0)

Challenge: Is reported protein stability index greater than or equal to 3 here: A24C
Response given: yes (1)

Challenge: Is reported protein stability index greater than or equal to 3 here: L12M
Response given: yes (1)

Challenge: Is reported protein stability index greater than or equal to 3 here: V13W
Response given: yes (1)

Challenge: Is reported protein stability index greater than or equal to 3 here: Q21Y
Response given: yes (1)

Challenge: Is reported protein stability index greater than or equal to 3 here: T7C
Response given: yes (1)

Challenge: Is reported protein stability index greater than or equal to 3 here: C1G
Response given: no (0)

Challenge: Is reported protein stability index greater than or equal to 3 here: T7P
Response given: yes (1)

Challenge: Is reported protein stability index greater than or equal to 3 here: L12I
Response given: yes (1)

Challenge: Is reported protein stability index greater than or equal to 3 here: R18E
Response given: yes (1)
